Values were extracted from patent US9732094B2.

Give measured IC50 for each item. Keep answers brief.
target.desc: DNA-PK phosphorylation at serine 2056 (Homo sapiens (Human), UniProt P78527)
assay.notes: DNA-PK phosphorylation at serine 2056 (cellular), bleomycin-treated HCT116 cells, ELISA
Type: cell-based
condition.details: cellular DNA-PK phosphorylation at serine 2056, HCT116; read-out: IC50 pDNA-PK

Ask | Endpoint output: IC50 of OC(c1cc(-c2ncnc3cc(N4CCOCC4)ccc23)ccc1F)c1cccc2nncn12 (centres unmarked) [Example 373] . Value?
Reply | 0.5 to 5 µM

Ask | Need IC50 of Cn1cnc2ncnc(C(O)c3cc(-c4ncnc5cc(N6CCOCC6)ccc45)c(F)cc3F)c21 (centres unmarked) [Example 386] , thanks.
Reply | 5 to 10 µM

Ask | Entry OC(c1cc(-c2ncnc3cc(N4CCOCC4)ccc23)ccc1Cl)c1ncnc2sccc12 (centres unmarked) [Example 430] has what IC50?
Reply | < 0.5 µM

Ask | For COc1ccc(C(O)c2cc(-c3ncnc4cc(N5CCOCC5)cnc34)c(F)cc2Cl)nn1 (centres unmarked) [Example 257] , what is its reported IC50?
Reply | 0.5 to 5 µM

Ask | Returns the measured IC50 for the input molecule. Input: NC(=O)C(c1ccc(F)c(-c2ncnc3cc(N4CCOCC4)ccc23)c1)c1ncnn2cccc12 (centres unmarked) [Example 299]
Reply | 10 to 30 µM

Ask | Can you look up the measured IC50 of NC(=O)C(c1ccc2nccn2n1)c1cc(-c2ncnc3cc(N4CCOCC4)ccc23)c(F)cc1Cl (centres unmarked) [Example 323] for me?
Reply | 0.5 to 5 µM

Ask | Any idea what its IC50 is? The molecule is OC(c1cc(-c2ncnc3cc(N4CCOCC4)ccc23)ccc1Cl)c1ncnc2ccoc12 (centres unmarked) [Example 432]
Reply | 0.5 to 5 µM

Ask | Endpoint output: IC50 of Cn1c(C(O)c2cc(-c3ncnc4cc(N5CCOCC5)ccc34)ccc2F)cccc1=O (centres unmarked) [Example 365] . Value?
Reply | 0.5 to 5 µM
